The reported numbers originate from patent US12448388B2.

Can you tell me CC50 for the items I'm about to list?
Tested on: HCT116 MTAP-deleted cell lines
Assay: Cell viability assay (CellTiter-Glo, 7 days), HCT116 MTAP-deleted
Type: cell-based
Details: Homo sapiens, HCT-116; cell viability, HCT116 MTAP-deleted; class symbols; read-out: CC50

Use the examples below as a reference point.
- Nc1nc2cc(F)c(C(=O)N3CCO[C@@H]4Cc5cc(OC(F)(F)F)ccc5[C@@H]43)cc2n2cncc12: < 0.1 µM
- CN(C(=O)c1cc2c(cc1F)nc(N)c1cncn12)C1COc2c1ccc(C(F)(F)F)c2Cl (stereo not drawn): < 0.1 µM
- Nc1nc2cc(F)c(C(=O)N3CC[C@H]4C[C@@H]3c3ccc(C(F)(F)F)nc3O4)cc2n2cncc12: < 0.1 µM
- CN(C(=O)c1cc2c(cc1F)nc(N)c1cncn12)[C@@H]1COc2cc(Br)ccc21: < 0.1 µM
- Nc1nc2cc(F)c(C(=O)N3CC[C@@H]4Oc5cc(C(F)(F)F)ccc5[C@@H]43)cc2n2cncc12: 0.1 to 1 µM
- Nc1nc2ccc(C(=O)N3CCOC[C@@H]3c3ccc(C(F)(F)F)cc3)cc2n2cnc(F)c12: 0.1 to 1 µM
- CN(C(=O)c1ccc2nc(N)c3cncn3c2c1)[C@@H](c1ccc(C(F)(F)F)cc1F)C(F)F: < 0.1 µM
- COc1ccc2c(n1)CCC2N(C)C(=O)c1cc2c(cc1F)nc(N)c1cncn12 (stereo not drawn): 0.1 to 1 µM

Need CC50 for each of these compounds.
1. Nc1nc2cc(F)c(C(=O)N3CCO[C@@H]4Cc5cc(-c6ccc(C(F)(F)F)cc6)ccc5[C@@H]43)cc2n2cncc12
2. CN(C(=O)C1CC1)N(Cc1cc(F)c(F)cc1F)C(=O)c1cc2c(cc1F)nc(N)c1cncn12
3. Cc1ncc2c(N)nc3ccc(C(=O)N(C)[C@@H]4COc5cc(C#CC6CCCO6)ccc54)cc3n12 (stereo partly drawn)

Result:
1. 0.1 to 1 µM
2. < 0.1 µM
3. 0.1 to 1 µM

Need CC50 for each of these compounds.
1. Nc1nc2cc(F)c(C(=O)N3CCC[C@@H]4Oc5cc(OC(F)(F)F)cc(F)c5[C@@H]43)cc2n2cncc12 (racemic)
2. Nc1nc2cnc(C(=O)N3CCC[C@@H]4Cc5cc(C(F)(F)F)ccc5[C@@H]43)cc2n2cncc12 (racemic)
3. C[C@H]1CN(C(=O)c2cc3c(cc2F)nc(N)c2cncn23)[C@H]2c3ccc(C(F)(F)F)cc3C[C@H]2O1 (single isomer, unassigned)
4. CC(C)N(Cc1ccc(-c2ccnn2C(F)(F)F)cc1F)C(=O)c1cc2c(cc1F)nc(N)c1cncn12

Result:
1: < 0.1 µM; 2: < 0.1 µM; 3: < 0.1 µM; 4: < 0.1 µM

---

Tested on: Symmetric Di-methyl Arginine (SDMA) signal (PRMT5 inhibition) in HCT116 MTAP-deleted cells
Test: Symmetric di-methyl arginine image-based high content screen assay (SDMA assay), HCT116 MTAP-deleted
Assay type: cell-based
Details: Homo sapiens, HCT-116, HCT116 MTAP-deleted, class symbols
pEC50: −log10 of the molar value.
Can you tell me pEC50 for the items I'm about to list?

Use the examples below as a reference point.
* Cc1ncc2c3cc(C(=O)N(C)[C@@H]4COc5cc(C(F)(F)F)ccc54)ccc3nc(N)n12 | < 8.30
* Nc1nc2cnc(C(=O)N3CCC[C@@H]4Oc5cc(OC(F)(F)F)cc(F)c5[C@@H]43)cc2n2cncc12 (single isomer, unassigned) | ≥ 9.00
* Nc1nc2cnc(C(=O)N3C[C@@H](F)C[C@@H]4Oc5cc(OC(F)(F)F)ccc5[C@@H]43)cc2n2cncc12 | ≥ 9.00
* Nc1nc2ccc(C(=O)N3C[C@H](F)C[C@@H]4Oc5cc(C(F)(F)F)ccc5[C@@H]43)cc2n2cncc12 (single isomer, unassigned) | ≥ 9.00
* Cc1ncc2c(N)nc3cnc(C(=O)N4CCC[C@@H]5Oc6cc(OC(F)(F)F)ccc6[C@@H]54)cc3n12 | ≥ 9.00

Need pEC50 for each of these compounds.
1. CN(C(=O)c1ccc2nc(N)c3cncn3c2c1)[C@@H]1COc2cc(C3CC3)ccc21
2. Nc1nc2ccc(C(=O)N3CCC4(CC4)[C@@H]4Oc5cc(C(F)(F)F)ccc5[C@@H]43)cc2n2cncc12
3. Nc1nc2ccc(C(=O)N3C[C@H](F)CC4Oc5cc(OC(F)(F)F)ccc5C43)cc2n2cncc12 (mixture of isomers)

Result:
1. 8.30 to 9.00
2. ≥ 9.00
3. 8.30 to 9.00

Need pEC50 for each of these compounds.
1. Nc1nc2ccc(C(=O)N(CC3CC3)[C@@H]3COc4cc(C(F)(F)F)ccc43)cc2n2cncc12
2. Cc1ncc2c(N)nc3cc(F)c(C(=O)N(C)[C@@H]4COCc5nc(C(F)(F)F)ccc54)cc3n12
3. C[C@H]1CN(C(=O)c2cc3c(cc2F)nc(N)c2cncn23)[C@H]2c3cc(F)c(Br)cc3C[C@H]2O1
4. Nc1nc2cc(F)c(C(=O)N3C[C@H](F)CC4Oc5cc(OC(F)(F)F)ccc5C43)cc2n2cncc12 (mixture of isomers)
5. Cc1ncn2c1c(N)nc1cnc(C(=O)N3C[C@H](C)C[C@@H]4Oc5cc(C(F)(F)F)ccc5[C@@H]43)cc12
6. Cc1ncc2c(N)nc3ccc(C(=O)N(C)[C@@H]4COc5cc(C#CC6CCCO6)ccc54)cc3n12 (stereo partly shown)
7. CC(=O)N(C)N(Cc1ccc(-c2cnn(C(F)(F)F)c2)cc1F)C(=O)c1ccc2nc(N)c3c(C)ncn3c2c1

Result:
1: ≥ 9.00; 2: 8.30 to 9.00; 3: ≥ 9.00; 4: ≥ 9.00; 5: < 8.30; 6: 8.30 to 9.00; 7: 8.30 to 9.00

Need pEC50 for each of these compounds.
1. Nc1nc2cnc(C(=O)N3CC4(CC4)C[C@@H]4Oc5cc(C(F)(F)F)ccc5[C@@H]43)cc2n2cncc12
2. CN(C(=O)c1cc2c(cc1F)nc(N)c1cncn12)[C@@H]1COc2cc(C#CC3(C)COC3)ccc21

Result:
1: ≥ 9.00; 2: 8.30 to 9.00

---

Experiment: Cell viability assay (CellTiter-Glo, 7 days), HCT116 WT
Assay type: cell-based
Settings: human, HCT116 WT cells, 7 days of treatment, CTG
The threshold is 1 µM. Values of CC50 at 7 days beneath it are tagged 1; values meeting or exceeding it are tagged -1.

// known answers, use as guide
• Cc1ncc2c(N)nc3cnc(C(=O)N4CCC[C@@H]5Oc6cc(C(F)(F)F)cc(F)c6[C@@H]54)cc3n12 [Fg-67] = -1
• Nc1nc2cc(F)c(C(=O)N3CCC[C@@H]4Oc5cc(C(F)(F)F)ncc5[C@@H]43)cc2n2cncc12 [Ff-117] = -1
• Cc1ncc2c(N)nc3cnc(C(=O)N4CCC[C@@H]5Oc6cc(OC(F)(F)F)cc(F)c6[C@@H]54)cc3n12 [Fg-66] = -1
• Nc1nc2cc(F)c(C(=O)N3CCO[C@@H]4Cc5cc(OC(F)F)c(F)cc5[C@@H]43)cc2n2cncc12 [Ff-174] = -1
• Nc1nc2cnc(C(=O)N3CC[C@H]4C[C@@H]3c3c(F)cc(C(F)(F)F)cc3O4)cc2n2cncc12 (single isomer, unassigned) [Ff-694] = 1
• Nc1nc2cc(F)c(C(=O)N3CCC[C@@H]4Oc5ccc(C(F)(F)F)cc5[C@@H]43)cc2n2cncc12 [Ff-620] = -1
• Cc1ncc2c(N)nc3cnc(C(=O)N4CC[C@H]5C[C@@H]4c4ccc(C(F)(F)F)c(F)c4O5)cc3n12 [Ff-699] = -1
• Nc1nc2cnc(C(=O)N3CCC[C@@H]4Oc5cc(OC(F)(F)F)cc(F)c5[C@@H]43)cc2n2cncc12 (single isomer, unassigned) [Fg-55] = 1
• C[C@@H]1CN(C(=O)c2cc3c(cc2F)nc(N)c2cncn23)[C@H]2c3ccc(OC(F)(F)F)cc3C[C@H]2O1 (single isomer, unassigned) [Ff-183] = 1
• Nc1nc2cnc(C(=O)N3CC[C@H]4C[C@@H]3c3c(F)cc(OC(F)(F)F)cc3O4)cc2n2cncc12 (single isomer, unassigned) [Ff-692] = 1

Q: Is CC50 at 7 days of [2H]C1([2H])CC[C@@H]2Oc3cc(C(F)(F)F)ccc3[C@@H]2N1C(=O)c1cc2c(cc1F)nc(N)c1cncn12 [Ff-121] strictly below 1 µM?
Result: 1

Q: Is CC50 at 7 days of Nc1nc2cnc(C(=O)N3CCC[C@@H]4Oc5cc(C(F)(F)F)ccc5[C@@H]43)cc2n2cncc12 [Ff-110] strictly below 1 µM?
Result: 1

Q: Is CC50 at 7 days of Nc1nc2cc(F)c(C(=O)N3CCC[C@@H]4Oc5cc(OC(F)(F)F)cc(F)c5[C@@H]43)cc2n2cncc12 [Fg-68] strictly below 1 µM?
Result: 1
